# TGI per entry
Test system: MALME-3M melanoma
assay protocol: NCI tumour cell line growth inhibition, 48 h

[
  {
    "compound": "N/N=C1\\c2ccccc2C2/C(=N\\N)c3ccccc3C12 (stereo not given)",
    "result qualifier": ">",
    "TGI [µM]": 100
  },
  {
    "compound": "C/C=C(/C)C(=O)O[C@@H]1c2c(C)coc2C[C@H]2CC[C@H](O)[C@H](C)[C@]21C",
    "result qualifier": "=",
    "TGI [µM]": 77.9
  },
  {
    "compound": "O=c1c2cc(Br)ccc2oc2nc3n(c(=O)c12)CCCS3",
    "result qualifier": ">",
    "TGI [µM]": 100
  },
  {
    "compound": "Cc1cc(C)c2c(n1)S(=O)(=O)N(CCCN1CCN(c3cccc(C(F)(F)F)c3)CC1)/C(=C(\\O)c1ccccc1)C2=O",
    "result qualifier": ">",
    "TGI [µM]": 100
  },
  {
    "compound": "COc1cc(NN=C(c2ccc(O)cc2)c2ccc(O)cc2)c([N+](=O)[O-])cc1[N+](=O)[O-]",
    "result qualifier": "=",
    "TGI [µM]": 31.6
  }
]
